System: HUV-EC-C cells (VEGF, Flk-1/KDR)
Test: HUV-EC-C assay, VEGF-stimulated 3H-thymidine incorporation
Type: cell-based
Conditions: Homo sapiens, read-out: HUVEC-VEGF IC50
I'd appreciate it if you could supply IC50 values for the items below.
Answers are plain numbers, in nM.

1) Cc1ccc2c(c1)/C(=C/c1[nH]c3c(c1CCC(=O)O)CCCC3)C(=O)N2; 1

Next, consider the following compound.
Prompt: Look up IC50 with HUV-EC-C cells (VEGF, Flk-1/KDR) for this compound: O=C(O)CCc1c(/C=C2\C(=O)Nc3ccc(Br)cc32)[nH]c2c1CCCC2
Completion: 0.3

----------
Target: chimeric receptor containing the EGFR extracellular domain and intracellular HER2 kinase domain (Homo sapiens, UniProt P04626)
Construct: fused on or other part: EGFR ectodomain + HER2 intracellular part, ATP-site indolinones: HER2's kinase
Sequence (P04626 720-1255 limits assumed, change not shown): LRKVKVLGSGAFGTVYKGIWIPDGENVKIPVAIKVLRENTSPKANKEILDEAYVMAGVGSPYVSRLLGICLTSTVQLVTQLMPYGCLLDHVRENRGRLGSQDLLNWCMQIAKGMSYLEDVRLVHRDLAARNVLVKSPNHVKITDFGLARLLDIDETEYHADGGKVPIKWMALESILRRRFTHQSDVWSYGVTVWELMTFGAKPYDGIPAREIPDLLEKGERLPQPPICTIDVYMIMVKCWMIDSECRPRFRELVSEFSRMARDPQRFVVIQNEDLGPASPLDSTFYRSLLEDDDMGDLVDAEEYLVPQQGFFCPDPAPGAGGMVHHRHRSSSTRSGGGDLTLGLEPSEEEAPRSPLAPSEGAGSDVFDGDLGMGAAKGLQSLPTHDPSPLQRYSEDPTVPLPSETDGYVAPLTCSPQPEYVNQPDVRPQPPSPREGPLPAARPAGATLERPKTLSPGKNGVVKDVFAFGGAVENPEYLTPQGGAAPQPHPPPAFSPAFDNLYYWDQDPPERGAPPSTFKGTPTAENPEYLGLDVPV
Test: EGF Receptor-HER2 chimeric receptor assay in whole cells (ELISA)
Format: cell-based
Conditions: read-out: HER-2 kinase IC50
property: pIC50
Give bare numbers, as −log10 of the molar value.

Worked cases, answers included:
1. COc1cc(/C=C2/C(=O)Nc3ccccc32)c(-c2cccs2)cc1OC [Example 39]; 4.47
2. COc1ccc(/C=C2/C(=O)Nc3ccccc32)cc1C1CCCC1 [Example 10]; 4.34
3. COc1ccc(/C=C2/C(=O)Nc3cc(NC(C)=O)ccc32)cc1-c1cccs1 [Example 31]; 4.89

Next, consider the following compound.
Prompt: Recorded pIC50 of O=C1Nc2ccc(F)cc2/C1=C\c1ccc2c(c1)CCO2 [Example 42] , please.
Completion: 4.32

----------
Biological target: chimeric receptor containing the EGFR extracellular domain and intracellular HER2 kinase domain (Homo sapiens, UniProt P04626)
Construct: fused on or other part: EGFR ectodomain + HER2 intracellular part, ATP-site indolinones: HER2's kinase
Test: EGF Receptor-HER2 chimeric receptor assay in whole cells (ELISA)
Details: read-out: HER-2 kinase IC50
property: IC50

1) Cc1cc(CCC(=O)O)c(/C=C2\C(=O)Nc3cc(-c4ccc(F)cc4)ccc32)[nH]1; > 100 µM

Go through the items and report each one's IC50.
1. CC1(C)CCc2cc(/C=C3/C(=O)Nc4ccc(Cl)cc43)ccc2O1
2. COc1ccc(C=C2C(=O)Nc3cc(NC(C)=O)ccc32)cc1-c1cccc(NC(C)=O)c1 (mixture of isomers)
3. COc1cc(/C=C2/C(=O)Nc3ccccc32)c(-c2ccc3ccccc3c2)cc1OC
4. COc1c(C(C)C)cc(/C=C2/C(=O)Nc3ncccc32)cc1C(C)C
5. COc1c(C(C)C)cc(/C=C2/C(=O)Nc3cc(O)ccc32)cc1C(C)C
6. CCOC(=O)c1c(C)[nH]c(/C=C2\C(=O)Nc3ccc(Br)cc32)c1CCC(=O)O

Completion:
19 µM
> 100 µM
> 100 µM
> 100 µM
5.8 µM
61.7 µM

Prompt: Recorded IC50 of CC(=O)Nc1ccc2c(c1)NC(=O)/C2=C\c1ccc2c(c1)CCC(C)(C)O2 , please.
Completion: 20.2 µM

----------
Target: pyk2 (Homo sapiens, UniProt Q14289)
Sequence (Q14289 whole entry, species assumed): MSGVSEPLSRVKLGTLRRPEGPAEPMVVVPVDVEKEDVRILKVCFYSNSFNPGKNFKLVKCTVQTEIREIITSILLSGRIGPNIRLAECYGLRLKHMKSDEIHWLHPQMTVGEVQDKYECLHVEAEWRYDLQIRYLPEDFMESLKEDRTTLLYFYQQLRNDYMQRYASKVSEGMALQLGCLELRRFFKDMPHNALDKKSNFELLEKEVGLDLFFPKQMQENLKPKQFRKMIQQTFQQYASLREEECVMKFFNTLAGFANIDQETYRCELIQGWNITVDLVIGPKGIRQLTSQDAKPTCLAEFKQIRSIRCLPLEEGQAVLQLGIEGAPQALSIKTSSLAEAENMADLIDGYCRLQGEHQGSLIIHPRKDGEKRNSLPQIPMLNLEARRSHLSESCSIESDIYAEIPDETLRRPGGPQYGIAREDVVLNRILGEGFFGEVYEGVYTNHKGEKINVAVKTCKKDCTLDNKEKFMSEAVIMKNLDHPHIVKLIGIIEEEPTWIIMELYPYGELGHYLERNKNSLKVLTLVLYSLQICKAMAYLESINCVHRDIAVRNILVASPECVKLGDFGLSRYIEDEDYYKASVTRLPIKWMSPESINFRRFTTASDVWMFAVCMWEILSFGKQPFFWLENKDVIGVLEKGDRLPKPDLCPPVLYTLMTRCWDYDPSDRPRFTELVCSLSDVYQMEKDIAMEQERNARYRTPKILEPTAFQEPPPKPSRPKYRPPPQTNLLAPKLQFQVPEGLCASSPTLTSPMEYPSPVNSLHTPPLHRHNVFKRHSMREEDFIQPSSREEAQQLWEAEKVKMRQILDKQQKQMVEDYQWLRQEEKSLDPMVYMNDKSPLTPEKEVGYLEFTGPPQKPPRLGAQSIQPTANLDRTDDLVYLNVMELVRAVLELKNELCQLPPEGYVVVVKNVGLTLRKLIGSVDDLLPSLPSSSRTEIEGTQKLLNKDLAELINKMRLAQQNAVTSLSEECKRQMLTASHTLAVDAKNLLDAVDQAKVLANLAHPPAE
pIC50: −log10 of the molar value.
Label NO if pIC50 falls below 5; label YES in every other case.

Use these answered entries as a reference point.
1. O=C(O)CCc1c(/C=C2\C(=O)Nc3ccc(Cl)cc32)[nH]c2c1CCCC2; NO
2. Cc1c(/C=C2\C(=O)Nc3ccc(S(N)(=O)=O)cc32)[nH]c2ccccc12; YES
3. CCOC(=O)c1c(C)[nH]c(/C=C2\C(=O)Nc3cccc(CCO)c32)c1CCCN1CCN(C)CC1; YES
4. Cc1c(/C=C2\C(=O)Nc3ccc(N)cc32)[nH]c2ccccc12; YES
5. CCOC(=O)c1c(C)[nH]c(/C=C2\C(=O)Nc3ccc(S(=O)(=O)NC)cc32)c1CCCN(C)C; NO

Now look at this entry.
Prompt: Check the entry CNC(=O)CCc1c(/C=C2\C(=O)Nc3ccccc32)[nH]c2c1CCCC2 : does pIC50 equal or exceed 5?
Completion: YES
